Attribution: patent US9018383B2

- TEST TARGET: human Edg-2 receptor (Homo sapiens, UniProt Q92633)
- Sequence (Q92633 whole entry): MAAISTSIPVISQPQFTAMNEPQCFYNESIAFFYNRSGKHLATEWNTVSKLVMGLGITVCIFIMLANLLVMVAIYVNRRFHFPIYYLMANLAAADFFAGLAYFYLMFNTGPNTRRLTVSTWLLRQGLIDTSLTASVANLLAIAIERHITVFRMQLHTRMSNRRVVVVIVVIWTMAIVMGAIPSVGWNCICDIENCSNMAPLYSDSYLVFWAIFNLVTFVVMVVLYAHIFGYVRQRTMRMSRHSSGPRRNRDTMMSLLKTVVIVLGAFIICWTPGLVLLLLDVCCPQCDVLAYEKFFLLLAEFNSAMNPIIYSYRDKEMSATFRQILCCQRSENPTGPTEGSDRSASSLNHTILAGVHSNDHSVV
- ASSAY: Determination of Edg-2 receptor inhibition by FLIPR measurements (LPA-mediated calcium liberation)
- RECORDED CONDITIONS: CHO cells overexpressing human Edg-2 receptor, LPA 100 nM, fluo-4 calcium fluorescence; read-out: Inhibitory concentrations IC50 for inhibition of the Edg-2 receptor
pIC50: −log10 of the molar value.
READOUT LABEL: pIC50

Would you please look over these solved cases?
COCCOc1ccc(C(=O)N[C@]2(C(=O)O)CC[C@H](C)CC2)cc1OCCc1cccc(Cl)c1; 6.00 to 7.00
COc1ccc(C(=O)NC2(C(=O)O)CCC(C)C2)cc1OCCc1cccc(C)c1 (stereo not shown) [Example 33]; > 7.00
COc1ccc(C(=O)NC2(C(=O)O)CCCCCC2)cc1OCCc1cccc(Cl)c1; > 7.00

-- ask Consider the compound COc1ncc(C(=O)N[C@]2(C(=O)O)CC[C@H](C)CC2)cc1OCCc1cccc(CCO)c1 and give its measured pIC50.
-- reply > 7.00

-- ask Name the recorded pIC50 for COc1ccc(C(=O)NC2(C(=O)O)CCCC(C)C2)cc1OCCc1cccc(C)c1 (stereo not shown) [Example 372] .
-- reply 6.00 to 7.00

-- ask // lookup pIC50 for COCCOc1ccc(C(=O)NC2(C(=O)O)CCCCCC2)cc1OCCc1cccc(C)c1
-- reply 4.52 to 6.00

-- ask Need pIC50, item CC[C@H]1CC[C@](NC(=O)c2cnc(OC)c(-c3ccc(F)cc3)c2)(C(=O)O)CC1
-- reply > 7.00

-- ask Query (compound): COc1ccc(C(=O)NC2(C(=O)O)CCCCCC2)cc1OCCc1cccc(C)c1 ; field requested: pIC50
-- reply > 7.00

-- ask Item under review: Cc1cccc(CCOc2cc(C(=O)NC3(C(=O)O)CCCCCC3)ccc2C(C)O)c1 (stereo not shown) . Reported pIC50?
-- reply 6.00 to 7.00

-- ask Item CC[C@H]1CC[C@](NC(=O)c2cnc(OC)c(-c3ccc(OC)c(F)c3)c2)(C(=O)O)CC1 has what recorded pIC50?
-- reply > 7.00
